Test: Human HepG2 cell viability assay in 384 well format
Type: toxicity, cell-based
Set-up: dose 125 nL, time 70.5 hour; concentration not given beside the values
Conditions: HepG2 cells, read-out: Inhibition
Each entry below lists one item and its recorded cytotoxicity at 70.5 h value.
Just the number in %, nothing appended.

A selection of reference data follows.
{"columns": ["compound", "result_type", "test_result"],
 "data": [
  ["c1cnc(N2CCCn3nnc(COCC4CC4)c3C2)nc1", "cytotoxicity at 70.5 h", -1.29],
  ["CCc1nnc(Nc2cccc(C3CCN(CC4CC4)CC3)n2)s1", "cytotoxicity at 70.5 h", -7.67],
  ["CC(C)N(C(=O)Cn1c(-c2ccco2)cc2cccnc21)C(C)C", "cytotoxicity at 70.5 h", -15.1],
  ["COCCN1C[C@H]2CCN(c3ncccn3)CC[C@H]2S1(=O)=O", "cytotoxicity at 70.5 h", -3.17],
  ["CCC(CC)c1cc(CNC(=O)N2CCCC(c3ncc[nH]3)C2)on1 (stereo not given)", "cytotoxicity at 70.5 h", 0.2]
]}

// returns reported cytotoxicity at 70.5 h for input COc1ccc2c(c1)NC(=O)C2OC(=O)CC(C)(C)C (stereo not given) -9.54

----------
Below, each of the molecules is paired with its reported cytotoxicity at 70.5 h value.
Experiment: Human HepG2 cell viability assay in 384 well format
Assay type: toxicity, cell-based
Design: dose 125 nL, time 70.5 hour; concentration not given beside the values
Settings: HepG2 cells, read-out: Inhibition
Your answer should be a plain number; it is taken to be in %.

{"columns": ["molecule", "test_result"],
 "data": [
  ["c1ccc2oc(CCCN3CCOC(Cn4cccn4)C3)nc2c1 (configuration not stated)", 0.524],
  ["CCC(CC)C(=O)N1CCOC2(COCCN(CC(=O)NC)C2)C1 (configuration not stated)", -11.7],
  ["Cc1cc(CN2C[C@@H]3COC[C@]3(CNC(=O)c3ccco3)C2)no1", -7.96],
  ["N#CCCSc1sc2c(O)cc(O)nc2c1C#N", 13.6]
]}

What does the data say about its cytotoxicity at 70.5 h? Entry: CN1CCC(c2nnc3n2CCN(S(=O)(=O)c2ccccc2Cl)C3)CC1 -5.89

If you can, please state the reported cytotoxicity at 70.5 h value of Cc1noc(CN(C)c2ccccc2)n1 . -13.6

Find the recorded cytotoxicity at 70.5 h belonging to CN(CC(=O)NS(=O)(=O)c1cccs1)Cc1ccccc1 and report it. 7.04

I would be grateful if you could share the reported cytotoxicity at 70.5 h for Cn1ncnc1NCc1ccc(Br)cc1 . -5.73

# cytotoxicity at 70.5 h lookup, item Nc1ncccc1C(=O)NCc1ccc(Br)cc1 -2.61

cytotoxicity at 70.5 h lookup needed for CCn1nc(C)c2nn(CC(=O)NC3CCSCC3)cc21 , thanks. 6.6

Need cytotoxicity at 70.5 h of O=C(CN1CCCC1c1noc(C2CC2)n1)NCCc1ccsc1 (configuration not stated) , thanks. 4.35

Fill blank: measured cytotoxicity at 70.5 h of the molecule COCC(=O)N[C@H](C)c1c(-c2ccc(Cl)cc2)noc1C(=O)O is ____. -2.23

----------
Test: Human HepG2 cell viability assay in 384 well format
Assay type: toxicity, cell-based
Set-up: dose 125 nL, time 70.5 hour; concentration not given beside the values
Settings: HepG2 cells, read-out: Inhibition
Recorded cytotoxicity at 70.5 h for the following molecules
Output spec: scalar in %, unitless text.

{"columns": ["molecule", "cytotoxicity at 70.5 h [%]"],
 "data": [
  ["CCc1cc(CNC(=O)Nc2cc(F)cc(N3CCCC3)c2)on1", -11.5],
  ["Cc1nc(C)c(C(C)NC(=O)NCCNc2cccc(F)c2C#N)s1 (configuration not stated)", -8.61],
  ["Cc1ccc(N2CCCC(N(C)c3nn4cc(C)nc4s3)C2)nn1 (configuration not stated)", -3.89],
  ["Cc1nn(C)c2c(N3CCN(C(=O)C4CCCO4)CC3)ncnc12 (configuration not stated)", 1.72],
  ["CC(=O)N1CCC(Nc2cccc(OC(F)F)c2C)CC1", -7.15],
  ["CS(=O)(=O)CCn1ccc(NCc2ccc(C#N)cc2)n1", -0.713],
  ["Cc1ccc(N2CCCC(NC(=O)CCc3ccccn3)C2=O)cc1 (configuration not stated)", 0.525],
  ["Cc1nc(C2CCCN2C(=O)COCc2ccccc2)no1 (configuration not stated)", -10.2],
  ["O=C(NCc1cccnc1)Nc1ccn(CC(F)F)n1", -3.22],
  ["Cc1cc(-c2cc(F)ccc2C(=O)O)nc(C2CCCN(C)C2)n1 (configuration not stated)", 2.71]
]}

Entry under review: OCC1(O)CCN(Cc2ccc(C3CCCCO3)o2)CC1 (configuration not stated) . Reported cytotoxicity at 70.5 h? -1.61

What does the data say about its cytotoxicity at 70.5 h? Entry: O=C(Cc1cccs1)N1CCCCC1c1ccn2ccnc2n1 (configuration not stated) -5.26
